Test system: human PBMCs
Assay: Cytokine release from peripheral blood mononuclear cells (LEGENDplex panel)
Assay type: cell-based
Condition summary: 2 μM + LPS 10 ng/mL, 18 h
Attribute measured: levels of LPS-induced IL-10

Check out these entries, answers already filled in.
{"Compound": "CCOC(=O)[C@@H](CCC(=O)NCCCNCCCCNCCCN)NC(=O)[C@@H](NC(=O)CNC(=O)/C=C/c1ccc(O)c(OC)c1)C(C)C [Compound 32]", "levels of LPS-induced IL-10": "opposite"}
{"Compound": "CCCC(=O)Oc1ccc(/C=C/C(=O)NCC(=O)N[C@H](C(=O)N[C@H](CCC(=O)OCC)C(=O)OCC)C(C)C)cc1OC [Compound 3]", "levels of LPS-induced IL-10": "amplified"}
{"Compound": "CCOC(=O)CC[C@@H](NC(=O)[C@@H](NC(=O)CNC(=O)/C=C/c1ccc(OC(=O)CO[C@H]2CC[C@@]3(C)C(=CC[C@H]4[C@@H]5CC[C@H]([C@H](C)CCCC(C)C)[C@@]5(C)CC[C@@H]43)C2)c(OC)c1)C(C)C)C(=O)OCC [Compound 26]", "levels of LPS-induced IL-10": "amplified"}
{"Compound": "CCOC(=O)[C@@H](CCC(=O)NC12C[C@H]3C[C@@H](C1)C[C@@H](C2)C3)NC(=O)[C@@H](NC(=O)CNC(=O)/C=C/c1ccc(O)c(OC)c1)C(C)C [Compound 28]", "levels of LPS-induced IL-10": "opposite"}
{"Compound": "CC(=O)N[C@H]1C(O)O[C@H](CO)[C@@H](O)[C@@H]1O[C@H](C)C(=O)N[C@@H](C)C(=O)N[C@H](CCC(=O)O)C(N)=O (mixture of isomers) [MDP, muramyl dipeptide, reference compound]", "levels of LPS-induced IL-10": "amplified"}

INPUT: Which levels of LPS-induced IL-10 value belongs to CCCCCCCCCCCC(=O)Oc1ccc(/C=C/C(=O)NCC(=O)N[C@H](C(=O)N[C@H](CCC(=O)OCC)C(=O)OCC)C(C)C)cc1OC [Compound 2] ?
OUTPUT: amplified

INPUT: Same thing, different compound: CC/C=C\C/C=C\C/C=C\C/C=C\C/C=C\CCCC(=O)Oc1ccc(/C=C/C(=O)NCC(=O)N[C@H](C(=O)N[C@H](CCC(=O)OCC)C(=O)OCC)C(C)C)cc1OC [Compound 23]
OUTPUT: amplified
